# experimental-details: In vitro microsomal stability, human
# Assay type: in vitro ADME
# condition-details: 10 min
Reported % of compound remaining when incubated in human liver microsomes with NADPH values are given for each entry in this list.
metric-name: % of compound remaining when incubated in human liver microsomes with NADPH (%)

| compound | result-value |
| --- | --- |
| CC(C)(C)C[C@H]1N[C@@H](C(=O)NC2CC(O)C2)[C@H](c2cccc(Cl)c2F)[C@@]12C(=O)Nc1cc(Cl)ccc12 (stereo partly shown) | 68.14 |
| CC(C)(C)C[C@H]1N[C@@H](C(=O)N[C@H]2C[C@@](C)(O)C2)[C@H](c2cccc(Cl)c2F)[C@@]12C(=O)Nc1cc(Cl)ccc12 | 80.61 |
| CC(O)C(O)CCNC(=O)[C@@H]1N[C@H](CC(C)(C)C)[C@]2(C(=O)Nc3cc(Cl)c(F)cc32)[C@H]1c1cccc(Cl)c1 (stereo partly shown) | 58.15 |
| CC(C)(C)C[C@H]1N[C@@H](C(=O)N[C@H]2C[C@@H](O)C2)[C@H](c2cccc(Cl)c2F)[C@@]12C(=O)Nc1cc(Cl)ccc12 (stereo in doubt) | 59.66 |

* * *

# experimental-details: In vitro microsomal stability, rat
# Format: in vitro ADME
# condition-details: rat liver microsomes, NADPH, 60 min
metric-name: % of compound remaining when incubated in rat liver microsomes with NADPH (%)

| compound | result-value |
| --- | --- |
| CC(C)(C)C[C@H]1N[C@@H](C(=O)NC2CCC(O)CC2)[C@H](c2cccc(Cl)c2F)[C@@]12C(=O)Nc1cc(Cl)ccc12 (stereo partly drawn) | 33.26 |
| CC(O)C(O)CCNC(=O)[C@@H]1N[C@H](CC(C)(C)C)[C@]2(C(=O)Nc3cc(Cl)c(F)cc32)[C@H]1c1cccc(Cl)c1 (stereo partly drawn) | 32.81 |
| CC(C)(C)C[C@H]1N[C@@H](C(=O)NC2CCC(NS(C)(=O)=O)CC2)[C@H](c2cccc(Cl)c2F)[C@@]12C(=O)Nc1cc(Cl)ccc12 (stereo partly drawn) [MI-772] | 75.96 |

* * *

# experimental-details: In vitro microsomal stability, rat
# Assay type: in vitro ADME
# condition-details: rat liver microsomes, NADPH, 30 min
metric-name: % of compound remaining when incubated in rat liver microsomes with NADPH (%)

| compound | result-value |
| --- | --- |
| CC(C)(C)C[C@H]1N[C@@H](C(=O)NC2CCC(NS(C)(=O)=O)CC2)[C@H](c2cccc(Cl)c2F)[C@@]12C(=O)Nc1cc(Cl)ccc12 (stereo partly drawn) [MI-771] | 1.22 |
| CC(C)(C)C[C@H]1N[C@@H](C(=O)NC2CCC(O)CC2)[C@H](c2cccc(Cl)c2F)[C@@]12C(=O)Nc1cc(Cl)ccc12 (stereo partly drawn) | 46.11 |
| CC(C)(C)C[C@H]1N[C@@H](C(=O)NC2CCC(NS(C)(=O)=O)CC2)[C@H](c2cccc(Cl)c2F)[C@@]12C(=O)Nc1cc(Cl)ccc12 (stereo partly drawn) [MI-772] | 88.27 |

* * *

# experimental-details: In vitro microsomal stability, rat
# Assay type: in vitro ADME
# condition-details: rat liver microsomes, NADPH, 45 min
Reported % of compound remaining when incubated in rat liver microsomes with NADPH values are given for each entry in this list.
metric-name: % of compound remaining when incubated in rat liver microsomes with NADPH (%)

| compound | units-symbol | result-value |
| --- | --- | --- |
| CC(C)(C)C[C@H]1N[C@@H](C(=O)N[C@H]2CC[C@@H](O)C2)[C@H](c2cccc(Cl)c2)[C@@]12C(=O)Nc1cc(Cl)c(F)cc12 | % | 2.49 |
| CC(C)(C)C[C@H]1N[C@@H](C(=O)NC2CCC(NS(C)(=O)=O)CC2)[C@H](c2cccc(Cl)c2F)[C@@]12C(=O)Nc1cc(Cl)ccc12 (stereo partly shown) [MI-772] | % | 78.65 |
| CC(C)(C)C[C@H]1N[C@@H](C(=O)NC2CCC(O)CC2)[C@H](c2cccc(Cl)c2F)[C@@]12C(=O)Nc1cc(Cl)ccc12 (stereo partly shown) | % | 41.18 |
| CC(C)(C)C[C@H]1N[C@@H](C(=O)NCC[C@H](O)CN2CC[C@@H](O)C2)[C@H](c2cccc(Cl)c2)[C@@]12C(=O)Nc1cc(Cl)c(F)cc12 | % | 71.89 |
| CC(C)(C)C[C@H]1N[C@@H](C(=O)NC2CCC(NS(C)(=O)=O)CC2)[C@H](c2cccc(Cl)c2F)[C@@]12C(=O)Nc1cc(Cl)ccc12 (stereo partly shown) [MI-771] | % | 0.66 |
| CC(C)(C)C[C@H]1N[C@@H](C(=O)N[C@H]2CC[C@@H](O)C2)[C@H](c2cccc(Cl)c2F)[C@@]12C(=O)Nc1cc(Cl)ccc12 | % | 0.00 |
| CC(C)(C)C[C@H]1N[C@@H](C(=O)NCCC(C)(O)CO)[C@H](c2cccc(Cl)c2)[C@@]12C(=O)Nc1cc(Cl)c(F)cc12 (stereo partly shown) | % | 69.33 |
| CC(O)C(O)CCNC(=O)[C@@H]1N[C@H](CC(C)(C)C)[C@]2(C(=O)Nc3cc(Cl)c(F)cc32)[C@H]1c1cccc(Cl)c1 (stereo partly shown) | % | 34.31 |
| CC(C)(C)C[C@H]1N[C@@H](C(=O)NCC[C@H](O)CNC(C)(C)C)[C@H](c2cccc(Cl)c2)[C@@]12C(=O)Nc1cc(Cl)c(F)cc12 | % | 66.08 |
| CC(C)(C)C[C@H]1N[C@@H](C(=O)NCC[C@H](O)CN2CCCC2)[C@H](c2cccc(Cl)c2)[C@@]12C(=O)Nc1cc(Cl)c(F)cc12 | % | 65.40 |
